Cited source for all entries: PubChem BioAssay (NCI)

- PROTOCOL_DETAILS: NCI Yeast Anticancer Drug Screen. Data for the sgs1 mgt1 strain (AID 161);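 note: 0% = growth of cultures given vehicle only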
- CONDITION_DETAILS: S. cerevisiae sgs1 mgt1 strain, at 50.0 µM, active compounds read high
Compounds without any hit were thinned out: in the full panel of roughly 79,000, 15% have a hit.
Could you please report measured growth inhibition for the items listed next?
Answers are plain numbers, in %.

Answered examples (3):
COMPOUND	RECORDED_MEASUREMENT
O=S(=O)(O)C(O)Cc1cccc2ccccc12 (stereo not drawn)	1.3
CCCCNC(=O)C(c1ccccc1)c1ccccc1	10.8
O=C(O)C(O)C(O)C(O)C(O)C(=O)O.[NH-]C1CCCCC1[NH-].[Pt+2] (stereo not drawn)	-1.55

Hello, I would appreciate it if you could give growth inhibition for each entry below.
1. Nc1cn(Cc2ccccc2)c(=O)n(Cc2ccccc2)c1=O
2. Cc1cc(=O)oc2c(C)c3oc4c(c3cc12)CN(C)CC4
3. CCC(=O)Nc1nnc(SCCCCCCCCCCSc2nnc(NC(=O)CC)s2)s1
4. CC(C)(C)NC(=O)NCCCCCCNC(=O)NC(C)(C)C
5. C=CC(O)CCCC (stereo not drawn)
6. CC[N+](C)(C)CC(O)(O)C(F)F

-9.5
25.4
17.7
-7.45
0.6
-17.1
